Molecular target: human GPR119 (Homo sapiens, UniProt Q8TDV5)
Construct: expression vector for human GPR119 cDNA (Acc. No. NP_848566)
Sequence (Q8TDV5 1-335): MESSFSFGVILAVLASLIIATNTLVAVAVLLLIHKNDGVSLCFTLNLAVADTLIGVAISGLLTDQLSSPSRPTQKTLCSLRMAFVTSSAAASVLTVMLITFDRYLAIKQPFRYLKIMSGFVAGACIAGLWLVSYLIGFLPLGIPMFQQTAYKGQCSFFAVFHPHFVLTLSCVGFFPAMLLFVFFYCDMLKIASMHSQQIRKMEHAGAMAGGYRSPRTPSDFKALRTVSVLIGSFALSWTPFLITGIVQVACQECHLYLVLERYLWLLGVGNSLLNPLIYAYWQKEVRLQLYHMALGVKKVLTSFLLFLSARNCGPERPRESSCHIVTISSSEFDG
Assay: GPR119 activation / intracellular cAMP stimulation, AlphaScreen cAMP Assay in Min-6/hGPR119 cells
Settings: MIN6 cells stably transfected with human GPR119, 45 minutes incubation at room temperature
Value Type: pEC50
On this scale, pEC50 is minus log10 of a concentration expressed in M (mol/L).

Example compounds with recorded pEC50:
CSc1ccc(-c2cc3c(cn2)OC2(C3)CC3(CCN(C(=O)OC(C)(C)C)CC3)C2)c(C#N)c1	7.85
CS(=O)(=O)N1CC=C(c2cc3c(cn2)OC2(C3)CC3(CCN(c4ncc(C5CC5)cn4)CC3)C2)CC1	8.05

From here, focus on the item given below.
(Q) Specify measured pEC50 for CC(C)(C)OC(=O)N1CCC2(CC1)CC1(Cc3cc(C4=CCN(S(C)(=O)=O)CC4)ncc3O1)C2 .
(A) 7.30
